Target: recombinant CD73 (Homo sapiens, UniProt P21589)
Construct: purchased R&D Systems 5795-EN-010
Sequence (P21589 27-547 limits assumed): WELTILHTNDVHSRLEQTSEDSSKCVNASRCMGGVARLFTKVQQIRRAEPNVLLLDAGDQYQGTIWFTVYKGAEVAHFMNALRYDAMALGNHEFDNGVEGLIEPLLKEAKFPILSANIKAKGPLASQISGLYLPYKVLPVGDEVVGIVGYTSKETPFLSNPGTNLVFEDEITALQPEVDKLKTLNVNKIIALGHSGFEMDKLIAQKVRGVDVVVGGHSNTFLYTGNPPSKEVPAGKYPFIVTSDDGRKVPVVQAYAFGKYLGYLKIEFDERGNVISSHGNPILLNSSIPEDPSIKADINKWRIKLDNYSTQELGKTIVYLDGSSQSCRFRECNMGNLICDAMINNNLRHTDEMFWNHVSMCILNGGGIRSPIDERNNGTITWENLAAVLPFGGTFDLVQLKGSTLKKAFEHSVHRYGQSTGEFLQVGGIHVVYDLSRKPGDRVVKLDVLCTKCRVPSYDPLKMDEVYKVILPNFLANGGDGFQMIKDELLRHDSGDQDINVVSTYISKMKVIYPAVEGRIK
Test: Assay 1: Inhibition of the CD73 Enzyme In Vitro
Format: biochemical
Conditions: soluble recombinant CD73 0.5 nM, AMP 50 μM, 30 minutes at room temperature, Malachite Green, absorbance at 630 nm; read-out: Assay 1 CD73 IC50
pIC50: −log10 of the molar value.

[
  {
    "molecule": "Nc1nc(Cl)nc2c1ncn2[C@@H]1O[C@H](CO[C@@](Cc2ccc(-c3ccccc3)cc2)(C(=O)O)c2cscn2)[C@@H](O)[C@@H]1F (single isomer, unassigned) [Example 9]",
    "experimental-target": "recombinant CD73 (Homo sapiens, UniProt P21589)",
    "pIC50": 5.58
  },
  {
    "molecule": "CS(=O)(=O)Nc1ccccc1-c1ccc(C[C@@](OC[C@H]2O[C@@H](n3cnc4c(N)nc(Cl)nc43)[C@H](O)[C@@H]2O)(C(=O)O)c2cscn2)cc1 (single isomer, unassigned) [Example 41]",
    "experimental-target": "recombinant CD73 (Homo sapiens, UniProt P21589)",
    "pIC50": 7.37
  },
  {
    "molecule": "Nc1nc(Cl)nc2c1ncn2[C@@H]1O[C@H](COC(Cc2ccc(-c3ccccc3C(=O)O)cc2)(C(=O)O)c2ccsc2)[C@@H](O)[C@H]1O (mixture of isomers) [Example 49]",
    "experimental-target": "recombinant CD73 (Homo sapiens, UniProt P21589)",
    "pIC50": 5.64
  },
  {
    "molecule": "COc1cccc(CO)c1-c1ccc(C[C@@](OC[C@H]2O[C@@H](n3cnc4c(N)nc(Cl)nc43)[C@H](O)[C@@H]2O)(C(=O)O)c2cscn2)cc1 (single isomer, unassigned) [Example 39]",
    "experimental-target": "recombinant CD73 (Homo sapiens, UniProt P21589)",
    "pIC50": 7.17
  },
  {
    "molecule": "Nc1nc(Cl)nc2c1ncn2[C@@H]1O[C@H](CO[C@@](Cc2ccc(-c3ccc[nH]c3=O)cc2)(C(=O)O)c2cscn2)[C@@H](O)[C@@H]1F (single isomer, unassigned) [Example 22]",
    "experimental-target": "recombinant CD73 (Homo sapiens, UniProt P21589)",
    "pIC50": 5.53
  }
]
